Where do these numbers come from? They come from PubChem BioAssay (NCI).

# System: SR leukemia
# ASSAY DETAILS: NCI tumour cell line growth inhibition, 48 h; in the data active = GI50 below about 0.43 µM; inactive = the rest
// one of active, inactive, no free text

Oc1ccc(Nc2c3ccccc3nc3occ(Cl)c23)cc1 ... inactive
COC(=O)C1=CN(CC2=CC(=O)C(C)=CC2=O)C=C(C(=O)OC)C1c1cccc(OC)c1 ... inactive

Check the results log: what was the call for "Cn1c(Nc2ccc(C(F)(F)F)cc2)nc2cc(Oc3ccnc(-c4ncc(C(F)(F)F)[nH]4)c3)ccc21" ?
active

Next entry: CSc1nc(NC2OC(COC(C)=O)C(OC(C)=O)C(OC(C)=O)C2OC(C)=O)c(N=CC=Nc2c(NC3OC(COC(C)=O)C(OC(C)=O)C(OC(C)=O)C3OC(C)=O)nc(SC)n(C)c2=O)c(=O)n1C (centres undefined)
inactive

* * *

Measured GI50 accompanies every entry in the list below.
# Test system: UACC-62 melanoma
# ASSAY DETAILS: NCI tumour cell line growth inhibition, 48 h

C#Cc1nc(Nc2cc(C)[nH]n2)c2ccccc2n1 ... 165 nM

Fill blank: measured GI50 of the compound "CSc1ccccc1C#C/C=C\C#Cc1ccccc1N" is ____.
7830 nM

Next entry: CC(C)=CCc1cc(O)cc2c1OC(C=C(C)C)C1=C2C(=O)C2=C(C1=O)S(=O)(=O)CCN2 (stereo unspecified)
2810 nM

* * *

# System: LOX IMVI melanoma
# ASSAY DETAILS: NCI tumour cell line growth inhibition, 48 h
PROPERTY LABEL: TGI

Answered examples (5):
O=C(CNS(=O)(=O)Cc1ccccc1)NNc1ccccc1 ... > 100 µM
CCOC1c2cc(C(C)C)c(O)c(O)c2[C@@]23CCCC(C)(C)C2C1OC3=O (stereo not given in full) ... > 100 µM
CC1=C(/C=C/C(C)=C/C=C/C(C)=C/C(=O)OC2CC(n3cc(F)c(=O)[nH]c3=O)OC2CO)C(C)(C)CCC1 (stereo not given) ... 20.6 µM
CCOC(=O)/C=C(/C(=O)OCC)n1cnc2c(=O)[nH]c(NC(C)=O)nc21 ... > 100 µM
Nc1ccn([C@H]2CO[C@@H](CO)[C@@H]2O)c(=O)n1 ... > 100 µM

Fill blank: measured TGI of the molecule "C=CCc1ccc(O)c(-c2ccc(O)c(CC=C)c2)c1" is ____.
34.3 µM

Next entry: "COC(=O)c1ccc2c(c1)/C(=C\c1cc(Br)c(O)c(Br)c1)C(=O)N2"
> 25 µM

Next entry: CC1(Br)Cc2ccccc2C1=O (stereo not given)
2.41 µM

Next entry: "CCOC(=O)/C=C/c1ccc(C#Cc2ccccc2)cc1"
> 100 µM

Next entry: Cc1ccc(S(=O)OCc2c(C)c(C)c(COS(=O)c3ccc(C)cc3)c(C)c2C)cc1 (stereo not given)
> 100 µM

* * *

Measured TGI accompanies every entry in the list below.
# System: HL-60(TB) leukemia
# ASSAY DETAILS: NCI tumour cell line growth inhibition, 48 h

O=C1NI(C#Cc2ccccc2)c2ccccc21 ... > 100 µM
[N-]=[N+]=NCc1nc(N)c2c3c(sc2n1)CCCC3 ... > 100 µM
COc1ccc(-c2nsc3c2NC(=O)CC3c2cccc(OC)c2)cc1 (stereo not given) ... 17.4 µM
COC12OCCN(C)C1=CC(=O)C1=NNC(C)C12 (stereo not given) ... > 100 µM

Then there is this molecule:
So what TGI did "CCC(=O)O[C@H]1CC[C@H]2[C@@H]3CCC4=C/C(=N/OC(=O)c5cccc6cc7ccccc7nc56)CC[C@]4(C)[C@H]3CC[C@]12C" get with HL-60(TB) leukemia?
> 100 µM

* * *

# Test system: SR leukemia
# ASSAY DETAILS: NCI tumour cell line growth inhibition, 48 h; in the data active = GI50 below about 0.43 µM; inactive = the rest
// one of active, inactive, no free text

Solved entries:
COc1cc(/C=C\c2cc(OC)c(OC)c(OC)c2)cc(N/C=C\C(=O)c2cc(OC)c(OC)c(OC)c2)c1OC ... inactive
CS(=O)(=O)Nc1cc(-c2ccc3ncnc(Nc4c(Cl)ccc5c4OCO5)c3c2)cnc1Cl ... active
CCN(Cc1ccc(F)cc1)c1ccc(CO)c(Br)c1 ... inactive
BrCc1cccc(C[P+](c2ccccc2)(c2ccccc2)c2ccccc2)c1 ... inactive

# evaluate next
Check the results log: what was the call for "Cc1ccc(Nc2oc(-c3ccccc3)nc2[P+](c2ccccc2)(c2ccccc2)c2ccccc2)cc1" ?
inactive

* * *

# Tested on: KM12 colon
# ASSAY DETAILS: NCI tumour cell line growth inhibition, 48 h; in the data active = GI50 below about 0.43 µM; inactive = the rest
// one of true = active, false = inactive, no free text

CS(=O)(=O)Nc1cc(-c2ccc3ncnc(Nc4c(Cl)ccc5c4OCO5)c3c2)cnc1Cl ... false
Cc1cc(N(CCCNc2ccnc3cc(Cl)ccc23)Cc2ccc3c(c2)OCO3)nc(N2CCOCC2)n1 ... true
Nc1c(C(=O)c2ccccc2)cnn1-c1ccc(F)cc1 ... false

Check the results log: what was the call for "Cn1c(=O)c(Oc2ccc(F)cc2)cc2cnc(NC3CCOCC3)nc21" ?
false

Next entry: "COC(=O)c1cc2c(s1)-c1nccc3c1c(nc1ccccc13)C2=O"
false

Next entry: "COc1ccc(Cn2c(N)c(S(=O)(=O)c3ccc(Cl)cc3)c3nc(C#N)c(C#N)nc32)cc1"
false

Next entry: "CCOC(=O)c1c(-c2ccc(OC)cc2)c(C#N)c2c(C#N)c(N)nn2c1N"
false

Next entry: "CCCCCCCN=C(N)c1ccc(N2CCN(c3ccc(C(N)=NCCCCCCC)cc3)CC2)cc1"
false

Next entry: "O=[N+]([O-])c1cccc2ccc(N/N=C/c3ccccc3O)nc12"
false

Next entry: "NCCCn1c2c(c3ccc([N+](=O)[O-])cc3c1=O)C(=O)c1ccccc1-2"
true

* * *

Measured GI50 accompanies every entry in the list below.
# Test system: T-47D breast
# ASSAY DETAILS: NCI tumour cell line growth inhibition, 48 h

Fill blank: measured GI50 of the molecule "CCOC(=O)/C=C/c1ccc(C#Cc2ccccc2)cc1" is ____.
86800 nM

Next entry: "CCc1ccc(/C=C/c2ccc(O)c3ncccc23)[n+](C)c1"
1660 nM

Next entry: "COC(=O)c1ccc(-c2c(C#N)[n+](=O)c3cc(Cl)c(Cl)cc3n2[O-])cc1"
2480 nM

Next entry: "O=S(=O)(Nc1ccc(Cl)cc1Cl)c1ccc(-c2cnc(C3CC3)o2)cc1"
475 nM

Next entry: COc1ccc(C(O)(CCC(C)C)C(CN2CCOCC2)c2ccc(Cl)cc2)cc1 (centres undefined)
11400 nM

Next entry: "O=C1CCC/C=C\C[C@H]2C=CC(=O)/C2=C/C[C@H](C/C=C\CC(F)(F)F)O1"
635 nM

Next entry: "CC1CCN(C(=O)OCc2nc3nc(Cl)nc(N4CCOCC4)c3[nH]2)CC1"
1760 nM

Next entry: "C[C@H](Nc1cc(Cl)nc2c1cnn2[C@@H]1O[C@H](COP(=O)(O)CP(=O)(O)O)[C@@H](O)[C@H]1O)c1ccccc1F"
> 100000 nM

Next entry: "Cc1nc2cc(Nc3nc(Nc4ccc(F)cc4)nc(-c4cccs4)n3)ccc2n1Cc1ccccc1"
2600 nM

* * *

# Tested on: A549 NSCLC
# ASSAY DETAILS: NCI tumour cell line growth inhibition, 48 h
Measured TGI accompanies every entry in the list below.

COC(=O)/C=C\C(C#N)(C#N)N=Cc1cc(Br)cs1 ... 32.4 µM
Cc1ccc(Nc2oc(-c3ccccc3)nc2[P+](c2ccccc2)(c2ccccc2)c2ccccc2)cc1 ... 3.23 µM
[N-]=[N+]=NCc1nc(N)c2c3c(sc2n1)CCCC3 ... 36.6 µM

Fill blank: measured TGI of the molecule "CN(C)CCNC(=O)c1cccc2c(Nc3ccc(S(=O)(=O)N=C(N)N)cc3)c3ccccc3nc12" is ____.
48.4 µM

Next entry: "C[C@H](Nc1cc(Cl)nc2c1cnn2[C@@H]1O[C@H](COP(=O)(O)CP(=O)(O)O)[C@@H](O)[C@H]1O)c1ccccc1F"
> 100 µM

Next entry: CC1(C)OC2C(O)C(CO)OC2(C(F)F)O1 (stereo unspecified)
> 100 µM

Next entry: "CN(C)/N=C1/CCC(C(F)(F)F)(C(F)(F)F)O1"
> 100 µM

Next entry: COc1ccc(-c2nsc3c2NC(=O)CC3c2cccc(OC)c2)cc1 (stereo unspecified)
> 100 µM

* * *

# Test system: DMS 114 small cell lung
# ASSAY DETAILS: NCI tumour cell line growth inhibition, 48 h
PROPERTY LABEL: TGI

Answered examples (2):
COc1cc2c3c(c1OC)-c1cc4c(cc1CC3(C#N)N(C(=O)c1ccccc1)CC2)OCO4 (centres undefined) ... > 85.1 µM
CS/C(=C(\S)c1ccccc1)c1ccccc1 ... > 100 µM

Fill blank: measured TGI of the compound "O=C(CSc1c2ccccc2nc2ccccc12)Nc1ccccc1-c1ccccc1NC(=O)CSc1c2ccccc2nc2ccccc12" is ____.
46.8 µM

Next entry: "CS(=O)(=O)c1ccc(-c2cc(-c3ccc(S(C)(=O)=O)cc3)[n+](-c3cc(-c4ccccc4)c([O-])c(-c4ccccc4)c3)c(-c3ccc(S(C)(=O)=O)cc3)c2)cc1"
> 100 µM
